# Read-out: Forkhead box O1 (FOXO1), FOXO1 (gene 2308)
# assay remarks: LTEA_HepaRG_FOXO1: Life Technologies and Expression Analysis (LTEA) Assay for Forkhead box O1 (FOXO1) using HepaRG (AID 2283456)
# condition info: mRNA level, 48 h; actives raise or lower the signal
Active and inactive are the calls of the source. The calls were made as follows: active = hit-call score of the fitted dose curve at least 0.9, where 1 is the maximum; inactive = score below 0.9.
Outcomes: active, inactive

compound	discrete label
Cc1ccc(O)cc1	inactive
CC1(C)C(=O)N(Br)C(=O)N1Br	inactive
CC(C)CCCCCCOC(=O)c1ccc(C(=O)OCCCCCCC(C)C)c(C(=O)OCCCCCCC(C)C)c1	inactive
CC[C@H]1CC[C@H](NCc2cc3c(cc2OC)[C@H]2C[C@H]2C(=O)N3C)[C@H](c2ccccc2)N1	inactive
O=C(CCCCCCCCc1cccnc1)N1CCC(C=C(c2ccccc2)c2ccccc2)CC1	active
CC(=O)OC[C@H]1O[C@@](COC(C)=O)(O[C@H]2O[C@H](COC(C)=O)[C@@H](OC(C)=O)[C@H](OC(C)=O)[C@H]2OC(C)=O)[C@@H](OC(C)=O)[C@@H]1OC(C)=O	inactive
Oc1ccc2c(c1)-c1ccccc1C2	inactive
Nc1nc2ncc(CNc3ccc(C(=O)N[C@@H](CCC(=O)O)C(=O)O)cc3)nc2c(=O)[nH]1	inactive
COCCOCCOCCOC	inactive
CCn1nc(Cc2ccccc2)cc1C1CCN(C[C@H]2C[C@H](N(C)[C@@H](C(=O)O)C(C)C)C[C@@H]2c2cccc(F)c2)CC1	inactive
C[C@](N)(Cc1ccc(O)c(O)c1)C(=O)O	inactive
CCCCCCc1ccc(O)cc1O	inactive
CCc1cc(SCc2sc(-c3ccc(C(F)(F)F)cc3)nc2CN2CCN(c3ccc(OC)cc3)CC2)ccc1OCC(=O)O	active
C1N2CN3CN1CN(C2)C3	inactive
COC(=O)c1ccccc1O	inactive
NC(=O)NO	inactive
COC(=O)CC(=O)OC	inactive
CC(C)=CCC/C(C)=C/CO	inactive
CC/C(=C\C(=N/O)C(N)=O)C(C)[N+](=O)[O-] (stereo not drawn)	inactive
O=C(O)c1cccc(N(Cc2cccnc2)c2ccc(OC(F)F)c(OC(F)F)c2)c1	inactive
Cn1cnc([N+](=O)[O-])c1Sc1ncnc2nc[nH]c12	active
COc1ccc(/C=C/S(=O)(=O)NC(=O)c2ccc(C)cc2Cl)cc1	inactive
Cn1c(=O)c2c(ncn2C)n(C)c1=O	inactive
